Reference for the values: ChEMBL document CHEMBL2062476

system: Plasmodium falciparum; test: Antimalarial activity against chloroquine resistant Plasmodium falciparum K1 infected in RBCs incubated for 72 hrs by SYBRgreen dye based fluorometric assay; type: functional, organism-based; conditions: K1, 72 h
metric: IC50 (µg/mL)
Give bare numbers, in µg/mL.

compound	IC50 [µg/mL]
CC1=CSC2=NC(/C=C/c3cccc(Cl)c3)=C(C(=O)/C=C/c3cccc(Cl)c3)C(c3ccccc3)N12 (configuration not stated)	1.2
COc1ccc(C2C(C(=O)/C=C/c3ccc(Cl)cc3)=C(/C=C/c3ccc(Cl)cc3)N=C3SC=C(C)N32)cc1 (configuration not stated)	1.49
CC1=CSC2=NC(/C=C/c3ccc4c(c3)OCO4)=C(C(=O)/C=C/c3ccc4c(c3)OCO4)C(c3ccccc3)N12 (configuration not stated)	1.09
CC1=CSC2=NC(/C=C/c3ccc(Br)cc3)=C(C(=O)/C=C/c3ccc(Br)cc3)C(c3ccccc3)N12 (configuration not stated)	2.5
CC1=CSC2=NC(/C=C/c3ccccc3)=C(C(=O)/C=C/c3ccccc3)C(c3ccc(Cl)cc3)N12 (configuration not stated)	0.27

For CC1=CSC2=NC(/C=C/c3ccc(Br)cc3)=C(C(=O)/C=C/c3ccc(Br)cc3)C(c3ccc(Cl)cc3)N12 (configuration not stated) , write its IC50. 1.22
